- System: Gli-responsive luciferase reporter cells, SUFU pathway antagonism
- assay.protocol: Gli-SUFU pathway antagonists, dose response, cell-based, luciferase luminescence, uHTS hits (AID 602464); in the data active = IC50 below about 20 µM; inactive = the rest
# valid calls are active, inactive; nothing else

**Query** What outcome does the record of this test show for COc1ccccc1-c1c(-c2ccc(O)cc2O)n[nH]c1C(F)(F)F ?
**Result** active

----------
Consider the following compounds and their measured pIC50 readings.
- System: Gli-responsive luciferase reporter cells, SUFU pathway antagonism
- assay.protocol: Gli-SUFU pathway antagonists, dose response, cell-based, luciferase luminescence, uHTS hits (AID 602464)
Please keep in mind that pIC50 is minus log10 of the molar concentration; only the number is needed.

**Query** Which pIC50 is reported for this compound? CC(=O)c1c(C)[nH]c(C(=O)OCC(=O)Nc2sc3c(c2C#N)CCCC3)c1C
**Result** 5.25

**Query** For CC(C)=CCC/C(C)=C/CNC(=O)C[C@H]1C[C@H](C(=O)N2CCOCC2)[C@@]2(C)c3[nH]c4cc(CCC(=O)N(C)C)ccc4c3CCN2C1=O then?
**Result** 5.33

**Query** Try the compound CCOC(=O)c1ccc(NC(=O)Cn2cnc3cc(C)c(C)cc32)cc1
**Result** 5.56

**Query** Repeat with COc1cc(C(=O)NC2CCN(C)CC2)ccc1Nc1ncc2c(n1)N(CCc1ccccc1)CCC(=O)N2C
**Result** 5.34
